Test system: M. tuberculosis H37Rv
Test: microbe, parasite or virus in culture
Assay type: cell-based, Mycobacterium tuberculosis
Settings: Mycobacterium tuberculosis, H37RV, 120 h; […]; mean ± SD (n in parentheses); read-out: MIC
TEST_READOUT: MIC

{"CPD_SMILES": "Oc1ccc(CN2CCN(c3ccc(F)cc3)CC2)c2cccnc12", "RESULT": "> 20 µM"}

Below are some compounds; for each one, tell me its MIC.
1. CNc1ccc2cccc(O)c2n1
2. Oc1c(Cl)cc(Cl)c2cccnc12
3. Oc1ccc(CNc2cccc(Br)c2)c2cccnc12
4. COc1cccc(/C=C/c2ccc3cccc(O)c3n2)c1
5. COc1ccccc1/C=C/c1ccc2cccc(O)c2n1
6. Cc1ccc(O)c2ncccc12

1: 6.4 µM; 2: 8.4 µM; 3: > 20 µM; 4: 8.7 µM; 5: 13 µM; 6: 3.1 µM

* * *

System: M. tuberculosis H37Rv
Test: microbe, parasite or virus in culture
Format: cell-based, Mycobacterium tuberculosis
Details: Mycobacterium tuberculosis, H37RV, 120 h; […]; mean ± SD (n in parentheses); read-out: MIC
I'd be grateful if you could share measured MIC for these entries.
Give bare numbers, in µM.

{"CPD_SMILES": "Oc1cccc2ccc(/C=C/c3ccc4c(c3)OCO4)nc12", "MIC (µM)": 15}

For each of the compounds below, note its MIC.
1. Oc1cccc2ccc(/C=C/c3cccc(F)c3)nc12
2. Oc1ccc(COC2CCCCC2)c2cccnc12
3. O=[N+]([O-])c1ccc(O)c2ncccc12
4. Oc1ccc(Cl)c2cccnc12

1: 13; 2: 3.2; 3: 4.8; 4: 3

* * *

Provide the recorded pIC50 for the entries that follow.
System: HepG2 human liver cells
Experiment: HepG2 cytotoxicity, CellTiter-Glo, 72 hr
Conditions: HepG2, 72 h, read-out: HepG2 IC50
Give bare numbers, as −log10 of the molar value.

Example compounds with recorded pIC50:
{"CPD_SMILES": "Oc1cccc2ccc(/C=C/c3cccc(F)c3)nc12", "pIC50": 5.10}
{"CPD_SMILES": "Oc1ccc(CN2CCN(c3ccc(F)cc3)CC2)c2cccnc12", "pIC50": 5.01}
{"CPD_SMILES": "OCc1ccccc1CN1CCN(Cc2ccc3cccc(O)c3n2)CC1", "pIC50": 4.85}
{"CPD_SMILES": "Oc1ccc(Cl)c2cccnc12", "pIC50": 5.12}

List pIC50 for every entry below, keeping the order given.
1. Oc1ccc(CNc2cccc(Br)c2)c2cccnc12
2. Oc1ccc(COC2CCCCC2)c2cccnc12

4.92
5.31

* * *

Test: Vero cell cytotoxicity, CellTiter-Glo, 2 days
Type: cell-based
Details: African green monkey, Vero cells (CCL81), 2 days exposure
Could you please report measured IC50 at 2 days for the items listed next?
One number for each entry, in µM.

Below: 4 molecules and their reported IC50 at 2 days.
{"MOLECULE": "Oc1ccc(Br)c2cccnc12 [Compound 3]", "IC50 at 2 days (µM)": 1.8}
{"MOLECULE": "O=[N+]([O-])c1ccc(O)c2ncccc12 [Compound 6]", "IC50 at 2 days (µM)": 2.9}
{"MOLECULE": "Cc1ccc(O)c2ncccc12 [Compound 2]", "IC50 at 2 days (µM)": 1.4}
{"MOLECULE": "Oc1ccc(CN2CCN(c3ccc(F)cc3)CC2)c2cccnc12 [Compound 9]", "IC50 at 2 days (µM)": 5.8}

For each listed entry, give its IC50 at 2 days.
1. Oc1ccc(CNc2cccc(Br)c2)c2cccnc12 [Compound 8]
2. CNc1ccc2cccc(O)c2n1 [Compound 13]

1. 7.5
2. 8.2

# return IC50 at 2 days for each item in the list
1. Oc1cccc2ccc(Nc3ccccc3)nc12 [Compound 16]
2. Oc1cccc2ccc(/C=C/c3ccc4c(c3)OCO4)nc12 [Compound 23]

[0.94, 6]
